Reported viability by item:
# TEST DETAILS: Cytotoxicity against human HeLa cells assessed as cell viability at 2 time MIC
# Format: cell-based
# ASSAY CONDITIONS: read-out: Activity
Report as a plain number; the unit % is understood.

# example entries with known answers
O=[N+]([O-])c1cc(CN2CCC(c3ccccc3)C2)c(O)c2ncccc12 (racemic): 92.1
O=[N+]([O-])c1cc(CN2CCN(c3ccccc3)CC2)c(O)c2ncccc12: 66.3

The compound O=[N+]([O-])c1cc(CN2CCN(c3ccc(F)cc3)CC2)c(O)c2ncccc12 showed viability equal to 90.2

---

# Test system: Yersinia pseudotuberculosis
# TEST DETAILS: Inhibition of type 3 secretion in Yersinia pseudotuberculosis at 20 uM by reporter gene assay
Activity calls are given as the source filed them. The calls are words filed in the database; no cut-off is given here.
REPORTED ENDPOINT: inhibition

Below, 7 molecules whose answers are already recorded.
O=[N+]([O-])c1cc(CN2CCN(c3ccccc3)CC2)c(O)c2ncccc12: 88%
CCOc1ccccc1N1CCN(Cc2cc(Cl)c3cccnc3c2O)CC1: inactive
Cc1cccc(N2CCN(Cc3cc(Br)c4cccnc4c3O)CC2)c1: inactive
Oc1c(CN2CCN(c3ccc(F)cc3)CC2)cc(Br)c2cccnc12: inactive
CN1CCN(Cc2cc(Cl)c3cccnc3c2O)CC1: inactive
Oc1c(CN2CCN(c3ccccc3)CC2)cc(Cl)c2cccnc12: inactive
COc1c(CN2CCN(c3ccccc3)CC2)cc(Br)c2cccnc12: inactive

Entry Oc1c(CN2CCCCC2)cc(Cl)c2cccnc12 — recorded inhibition = inactive

---

# Test system: Yersinia pseudotuberculosis
# TEST DETAILS: Inhibition of type 3 secretion in Yersinia pseudotuberculosis at 100 uM by reporter gene assay
Calls of active or inactive are those of the source. No cut-off for these calls is given here.
REPORTED ENDPOINT: inhibition

Worked set:
O=[N+]([O-])c1cc(CN2CCC(c3ccccc3)C2)c(O)c2ncccc12 (racemic): 98%
O=[N+]([O-])c1cc(CN2CCN(c3ccccc3)CC2)c(O)c2ccccc12: inactive
Cc1cccc(N2CCN(Cc3cc(Br)c4cccnc4c3O)CC2)c1: 81%
CC1CN(Cc2cc([N+](=O)[O-])c3cccnc3c2O)CC(C)O1 (stereo unspecified): 93%

// sample Oc1c(CN2CCCCC2)cc(Cl)c2cccnc12 , its inhibition was 12%

The value of inhibition measured for the molecule O=[N+]([O-])c1ccc(O)c(CN2CCN(c3ccc(Cl)cc3)CC2)c1 turned out to be inactive

---

# System: Yersinia pseudotuberculosis
# TEST DETAILS: Inhibition of type 3 secretion in Yersinia pseudotuberculosis at 20 uM by reporter gene assay
Calls of active or inactive are those of the source. No cut-off for these calls is given here.
REPORTED ENDPOINT: inhibition

Example cases with answers are listed next.
COc1ccccc1N1CCN(Cc2cc([N+](=O)[O-])c3cccnc3c2O)CC1: 25%
COc1c(CN2CCN(c3ccccc3)CC2)cc(Cl)c2cccnc12: inactive
Oc1c(CN2CCN(c3ccc(F)cc3)CC2)ccc2cccnc12: inactive
O=[N+]([O-])c1ccc(O)c(CN2CCN(c3ccc(Cl)cc3)CC2)c1: inactive
CC1CN(Cc2cc([N+](=O)[O-])c3cccnc3c2O)CC(C)O1 (stereo not given): inactive
O=[N+]([O-])c1cc(CN2CCN(c3ccccc3)CC2)c(O)c2ccccc12: inactive
Oc1c(CN2CCN(c3ccccn3)CC2)cc(Cl)c2cccnc12: inactive
Oc1c(CN2CCN(c3ccc(F)cc3)CC2)cc(Cl)c2cccnc12: inactive
O=[N+]([O-])c1ccc(O)c(CN2CCN(c3ccccc3)CC2)c1: inactive

// inhibition lookup, molecule = O=[N+]([O-])c1cc(CN2CCC(c3ccccc3)C2)c(O)c2ncccc12 (racemic) , result: 79%
